B1: scFv; the commonest letter at each place (parent)
chain 1: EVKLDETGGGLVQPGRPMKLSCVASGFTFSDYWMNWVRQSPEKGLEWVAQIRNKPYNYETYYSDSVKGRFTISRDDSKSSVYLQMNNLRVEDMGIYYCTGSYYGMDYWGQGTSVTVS
chain 2: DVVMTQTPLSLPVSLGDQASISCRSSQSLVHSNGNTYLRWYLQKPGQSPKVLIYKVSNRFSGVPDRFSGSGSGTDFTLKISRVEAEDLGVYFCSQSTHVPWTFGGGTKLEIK

Variants of: B1
PROCEDURE_DETAILS: yeast surface expression (ratio to wild type); higher = more expressed
ASSAY_CONDITIONS: format: scFv 4-4-20, heavy + light
Mark met for reported yeast surface expression of 0.6 or greater; mark not met for anything smaller.

Say whether chain 1 F29P V37H shows yeast surface expression of 0.6 or more. met

Say whether chain 1 F29D Y32K W33Y shows yeast surface expression of 0.6 or more. met

Say whether chain 1 W108Q G109Q shows yeast surface expression of 0.6 or more. not met

Say whether chain 1 W108M shows yeast surface expression of 0.6 or more. met

Say whether chain 1 Y102E G109K shows yeast surface expression of 0.6 or more. not met

Say whether chain 1 G100Q D106H shows yeast surface expression of 0.6 or more. not met

Say whether chain 1 G100N G109R shows yeast surface expression of 0.6 or more. not met

Say whether chain 1 G100Y S101P shows yeast surface expression of 0.6 or more. not met

Say whether chain 1 Y103W G109A shows yeast surface expression of 0.6 or more. not met

Say whether chain 1 S101F M105L shows yeast surface expression of 0.6 or more. not met

Say whether chain 1 Y32F shows yeast surface expression of 0.6 or more. met

Say whether chain 1 Y107C W108V shows yeast surface expression of 0.6 or more. not met

Say whether chain 1 G104H W108R shows yeast surface expression of 0.6 or more. not met

Say whether chain 1 N35T shows yeast surface expression of 0.6 or more. met

Say whether chain 1 Y103L W108D shows yeast surface expression of 0.6 or more. not met

Say whether chain 1 D31R N35S V37L shows yeast surface expression of 0.6 or more. not met

Say whether chain 1 Y103V W108Y shows yeast surface expression of 0.6 or more. met

Say whether chain 1 D106I shows yeast surface expression of 0.6 or more. not met

Say whether chain 1 D106T G109M shows yeast surface expression of 0.6 or more. not met

Say whether chain 1 S101G shows yeast surface expression of 0.6 or more. met

Say whether chain 1 M105E D106C shows yeast surface expression of 0.6 or more. met

Say whether chain 1 M105T shows yeast surface expression of 0.6 or more. met

Say whether chain 1 S30H D31H shows yeast surface expression of 0.6 or more. met

Say whether chain 1 S30C shows yeast surface expression of 0.6 or more. met

Say whether chain 1 D31P Y32W shows yeast surface expression of 0.6 or more. met

Say whether chain 1 M34D shows yeast surface expression of 0.6 or more. not met

Say whether chain 1 M34S shows yeast surface expression of 0.6 or more. met

Say whether chain 1 M105N G109A shows yeast surface expression of 0.6 or more. not met

Say whether chain 1 T28C S30I shows yeast surface expression of 0.6 or more. met

Say whether chain 1 G104K G109F shows yeast surface expression of 0.6 or more. not met

Say whether chain 1 W36R shows yeast surface expression of 0.6 or more. met

Say whether chain 1 D31L V37F shows yeast surface expression of 0.6 or more. met

Say whether chain 1 S101K Y103S shows yeast surface expression of 0.6 or more. not met

Say whether chain 1 W33L shows yeast surface expression of 0.6 or more. met

Say whether chain 1 Y32Q W33V N35E shows yeast surface expression of 0.6 or more. met

Say whether chain 1 S101R Y103K shows yeast surface expression of 0.6 or more. met

Say whether chain 1 D31L shows yeast surface expression of 0.6 or more. not met

Say whether chain 1 S30D W36V shows yeast surface expression of 0.6 or more. met

Say whether chain 1 D106K shows yeast surface expression of 0.6 or more. not met

Say whether chain 1 M105V G109I shows yeast surface expression of 0.6 or more. not met

Say whether chain 1 D31F N35I shows yeast surface expression of 0.6 or more. met

Say whether chain 1 Y103I Y107F W108D shows yeast surface expression of 0.6 or more. not met

Say whether chain 1 G100S Y102T shows yeast surface expression of 0.6 or more. met

Say whether chain 1 G100V W108V shows yeast surface expression of 0.6 or more. met

Say whether chain 1 G100W D106S W108L shows yeast surface expression of 0.6 or more. not met

Say whether chain 1 S101D G109I shows yeast surface expression of 0.6 or more. not met

Say whether chain 1 M105I W108V shows yeast surface expression of 0.6 or more. met

Say whether chain 1 G100K shows yeast surface expression of 0.6 or more. not met

Say whether chain 1 M34H N35I shows yeast surface expression of 0.6 or more. not met

Say whether chain 1 M34N W36Y shows yeast surface expression of 0.6 or more. not met

Say whether chain 1 G104M G109L shows yeast surface expression of 0.6 or more. not met

Say whether chain 1 F29Y S30A D31M shows yeast surface expression of 0.6 or more. met

Say whether chain 1 G100I Y107E shows yeast surface expression of 0.6 or more. met

Say whether chain 1 N35I V37M shows yeast surface expression of 0.6 or more. met

Say whether chain 1 S101L Y102A shows yeast surface expression of 0.6 or more. not met

Say whether chain 1 M105W Y107P shows yeast surface expression of 0.6 or more. not met

Say whether chain 1 S30D W36V V37L shows yeast surface expression of 0.6 or more. not met

Say whether chain 1 M34I V37Q shows yeast surface expression of 0.6 or more. not met

Say whether chain 1 D31I shows yeast surface expression of 0.6 or more. not met

Say whether chain 1 M34Y W36K shows yeast surface expression of 0.6 or more. not met

Say whether chain 1 W108E G109T shows yeast surface expression of 0.6 or more. not met

Say whether chain 1 F29W D31G shows yeast surface expression of 0.6 or more. not met

Say whether chain 1 M34I W36M shows yeast surface expression of 0.6 or more. met

Say whether chain 1 S30Y M34A shows yeast surface expression of 0.6 or more. not met

Say whether chain 1 F29H W36C shows yeast surface expression of 0.6 or more. not met

Say whether chain 1 T28N shows yeast surface expression of 0.6 or more. met

Say whether chain 1 S101W shows yeast surface expression of 0.6 or more. met

Say whether chain 1 S101K Y103T shows yeast surface expression of 0.6 or more. not met

Say whether chain 1 G104F D106G shows yeast surface expression of 0.6 or more. not met

Say whether chain 1 Y107D W108C shows yeast surface expression of 0.6 or more. not met

Say whether chain 1 T28K V37R shows yeast surface expression of 0.6 or more. met

Say whether chain 1 Y32K M34F W36H shows yeast surface expression of 0.6 or more. not met

Say whether chain 1 Y107F W108E shows yeast surface expression of 0.6 or more. not met

Say whether chain 1 F29H N35V shows yeast surface expression of 0.6 or more. met

Say whether chain 1 M105P Y107H shows yeast surface expression of 0.6 or more. met

Say whether chain 1 Y32M W33D V37C shows yeast surface expression of 0.6 or more. met

Say whether chain 1 D31W W36E shows yeast surface expression of 0.6 or more. met

Say whether chain 1 G100V G104A shows yeast surface expression of 0.6 or more. met

Say whether chain 1 F29V M34E shows yeast surface expression of 0.6 or more. met

Say whether chain 1 D31I Y32A shows yeast surface expression of 0.6 or more. met

Say whether chain 1 G100Y M105R shows yeast surface expression of 0.6 or more. not met

Say whether chain 1 S30G D31H S101A Y102S D106E W108L shows yeast surface expression of 0.6 or more. met

Say whether chain 1 M105N Y107I shows yeast surface expression of 0.6 or more. met

Say whether chain 1 G104Y G109T shows yeast surface expression of 0.6 or more. not met

Say whether chain 1 D106A Y107F shows yeast surface expression of 0.6 or more. not met

Say whether chain 1 Y32E shows yeast surface expression of 0.6 or more. met

Say whether chain 1 D106H shows yeast surface expression of 0.6 or more. not met

Say whether chain 1 D31E Y32M shows yeast surface expression of 0.6 or more. met
